- System: A-375
- measurement-notes: Drug uptake in human A375 cells at 30 uM incubated for 30 mins by differential interference contrast microscopy
- Assay type: ADME, cell-based
- test-parameters: a-375, 0.5 h
endpoint-label: Drug uptake

                               smiles_input  endpoint_label  result_value
0  NCCCC[C@H](NC(=O)[C@@H](N)CCCCN)C(=O)Nc1ccc(C#Cc2c(F)c(F)nc(F)c2F)cc1.O=C(O)C(F)(F)F     Drug uptake        Active
1  NCCCC[C@H](N)C(=O)NCCCC[C@H](N)C(=O)Nc1ccc(C#Cc2c(F)c(F)nc(F)c2F)cc1.O=C(O)C(F)(F)F     Drug uptake        Active
2  NCCCC[C@H](NC(=O)[C@@H](N)CCCCN)C(=O)Nc1ccc(C#Cc2c(F)c(F)nc(F)c2F)c(C#Cc2c(F)c(F)nc(F)c2F)c1.O=C(O)C(F)(F)F     Drug uptake        Active
3  NCCCC[C@H](N)C(=O)NCCCC[C@H](N)C(=O)Nc1ccc(C#Cc2c(F)c(F)nc(F)c2F)c(C#Cc2c(F)c(F)nc(F)c2F)c1.O=C(O)C(F)(F)F     Drug uptake        Active

---

- Test system: Nucleic Acid
- measurement-notes: Induction of DNA cleavage in Escherichia coli pBR322 at 5 uM in pH 6.0 phosphate buffer measured after of UV irradiation
- Type: nucleic-acid assay
endpoint-label: Activity (%)

>>> print(df.to_string())
                               smiles_input  target_or_test_system  units_of_measure  result_value
0  NCCCC[C@H](NC(=O)[C@@H](N)CCCCN)C(=O)Nc1ccc(C#Cc2c(F)c(F)nc(F)c2F)c(C#Cc2c(F)c(F)nc(F)c2F)c1.O=C(O)C(F)(F)F           Nucleic Acid                 %            13
1  NCCCC[C@H](N)C(=O)NCCCC[C@H](N)C(=O)Nc1ccc(C#Cc2c(F)c(F)nc(F)c2F)c(C#Cc2c(F)c(F)nc(F)c2F)c1.O=C(O)C(F)(F)F           Nucleic Acid                 %            17
2  NCCCC[C@H](NC(=O)[C@@H](N)CCCCN)C(=O)Nc1ccc(C#Cc2c(F)c(F)nc(F)c2F)cc1.O=C(O)C(F)(F)F           Nucleic Acid                 %            32
3  NCCCC[C@H](N)C(=O)NCCCC[C@H](N)C(=O)Nc1ccc(C#Cc2c(F)c(F)nc(F)c2F)cc1.O=C(O)C(F)(F)F           Nucleic Acid                 %            50
